molecular target: ScAbp1; assay: SPOT peptide array binding signal intensity (averaged, normalized) (arbitrary units (background-subtracted, floor 0; scale differs between SH3 domains)); higher = stronger binding of the SH3 domain to the peptide
measured endpoint: SPOT peptide array binding signal intensity

binder | value measured
QDKEGIPPDQQRLIF | 8
RSLRKRPTSPSISGS | 65
GLRRARYKFPGQQKI | 36
LYEAMPPTLPHRDWK | ≤ 0
LLLLFVPDSPYDPAI | ≤ 0
LKRITSPPLPPRADS | 16.5
VTHRLRISIPGITGR | 9
